- Test system: NCI-H2405
- measurementNotes: relative viability (nuclei count vs DMSO), 5 days (fraction); higher = more cells survive
- statedConditions: first compound 0.3162 µM
relative viability values for the molecules below.
// keep it numeric: no unit symbol after the value

The cases that follow already have their relative viability on record.
CC(C)Oc1cc(Nc2nc(N[C@@H](C)c3ccc(F)cn3)ncc2Cl)n[nH]1 [AZ23] + NC(=O)Nc1cc(-c2cccc(F)c2)sc1C(=O)N[C@H]1CCCNC1 [AZD7762] (partner 0.2 µM)    0.843
CC(C)Oc1cc(Nc2nc(N[C@@H](C)c3ccc(F)cn3)ncc2Cl)n[nH]1 [AZ23] + CS(=O)(=O)N1CCN(Cc2cc3nc(-c4cccc5[nH]ncc45)nc(N4CCOCC4)c3s2)CC1 [Pictilisib] (partner 1 µM)    0.429
CC(C)Oc1cc(Nc2nc(N[C@@H](C)c3ccc(F)cn3)ncc2Cl)n[nH]1 [AZ23] + CC(=O)c1c(C)c2cnc(Nc3ccc(N4CCNCC4)cn3)nc2n(C2CCCC2)c1=O [Palbociclib] (partner 0.5 µM)    0.589
CC(C)Oc1cc(Nc2nc(N[C@@H](C)c3ccc(F)cn3)ncc2Cl)n[nH]1 [AZ23] + Nc1nc2[nH]cc(CCc3ccc(C(=O)N[C@@H](CCC(=O)O)C(=O)O)cc3)c2c(=O)[nH]1 [Pemetrexed] (partner 0.2 µM)    0.879

Would you kindly look at the next entry?
Form entry - test system: NCI-H2405; read-out: relative viability; molecule: CC(C)Oc1cc(Nc2nc(N[C@@H](C)c3ccc(F)cn3)ncc2Cl)n[nH]1 [AZ23] + O=C(CCCCCCC(=O)Nc1ccccc1)NO [Vorinostat] (partner 1 µM)
1.01
